- RUN DESCRIPTION: Stability (placement) test of ADCs at 40° C. in dark for 14 days, DAR and polymer content
- Assay type: physicochemical
- EXPERIMENTAL CONDITIONS: Day 14, 40° C. in dark
*1 amine or outer side, *2 acyl side, *3 side chain or, on linkers, in order; H or OH if unused. Where a SMILES comes first, the peptide text is derived from it. [ ]: non-standard residue; d: D form. The star is where a group is joined. MaleimidoPEG4propanoyl = O=C1C=CC(=O)N1CCOCCOCCOCCOCCC(=O)*; X2 = CO[C@@H]([C@H]1CCCN1[*:1])[C@@H](C)C(=O)[*:2]; Dil = CC[C@H](C)[C@H](NC)[C@@H](CC(=O)O)OC; X1 = O=C(CN1CCOCCN([*:1])CCOCC1)[*:2]; PABC = O=C(OCc1ccc(N[*:1])cc1)[*:2]; X3 = C[C@@H](N*)[C@@H](O)c1ccccc1; NMeV = CN[C@H](C(=O)O)C(C)C
# label = met if Polymer content (%) >= 0.9% else not met

Examples from the recorded data:
{"columns": ["COMPOUND", "GROUP"],
 "data": [
  ["C=C1C[C@@H]2CC[C@@]34C[C@H]5OC6C(C[C@H]7CC[C@H](CC(=O)C[C@@H]8[C@@H](OC)[C@@H](C[C@H](O)CNC(=O)CNC(=O)[C@H](Cc9ccccc9)NC(=O)CNC(=O)CNC(=O)CCC(=O)N9CCOCCN(C(=O)CCN%10C(=O)C=CC%10=O)CCOCC9)O[C@H]8C[C@H]8O[C@@H](CC[C@@H]1O2)C[C@@H](C)C8=C)O[C@@H]7[C@@H]6O3)[C@H]5O4 [Example 26]", "not met"],
  ["C=C1C[C@@H]2CC[C@@]34C[C@H]5OC6C(O[C@H]7CC[C@H](CC(=O)C[C@@H]8[C@@H](OC)[C@@H](C[C@H](O)CNC(=O)CNC(=O)[C@H](Cc9ccccc9)NC(=O)CNC(=O)CNC(=O)CN9CCOCCOCCN(C(=O)CCCCCN%10C(=O)C=CC%10=O)CCOCCOCC9)O[C@H]8C[C@H]8O[C@@H](CC[C@@H]1O2)C[C@@H](C)C8=C)O[C@@H]7[C@@H]6O3)[C@H]5O4 [Example 39]", "met"],
  ["C=C1C[C@@H]2CC[C@@]34C[C@H]5OC6C(O[C@H]7CC[C@H](CC(=O)C[C@@H]8[C@@H](OC)[C@@H](C[C@H](O)CNC(=O)CNC(=O)[C@H](Cc9ccccc9)NC(=O)CNC(=O)CN9CCOCCOCCN(C(=O)CCCC%10C(=O)C=CC%10=O)CCOCCOCC9)O[C@H]8C[C@H]8O[C@@H](CC[C@@H]1O2)C[C@@H](C)C8=C)O[C@@H]7[C@@H]6O3)[C@H]5O4 [Example 42]", "met"]
]}

Qu. Polymer content (%) >= 0.9% for CCc1c2c(nc3ccc(O)cc13)-c1cc3c(c(=O)n1C2)CCC(=O)[C@@]3(CC)OC(=O)N(C)CCN(C)C(=O)COCNC(=O)CNC(=O)[C@H](Cc1ccccc1)NC(=O)CNC(=O)CNC(=O)CN1CCOCCN(C(=O)CCN2C(=O)C=CC2=O)CCOCC1 [Example 23] ?
Ans. not met

Qu. Also C=C1C[C@@H]2CC[C@@]34C[C@H]5OC6C(O[C@H]7CC[C@H](CC(=O)C[C@@H]8[C@@H](OC)[C@@H](C[C@H](O)CNC(=O)CNC(=O)[C@H](Cc9ccccc9)NC(=O)CNC(=O)CNC(=O)CN9CCOCCOCCN(C(=O)CCCC%10C(=O)C=CC%10=O)CCOCCOCC9)O[C@H]8C[C@H]8O[C@@H](CC[C@@H]1O2)C[C@@H](C)C8=C)O[C@@H]7[C@@H]6O3)[C@H]5O4 [Example 41] , if possible.
Ans. met

Qu. Also CC[C@H](C)[C@@H]([C@@H](CC(=O)N1CCC[C@@H]1[C@H](OC)[C@@H](C)C(=O)N[C@H](C)[C@@H](O)c1ccccc1)OC)N(C)C(=O)[C@@H](NC(=O)[C@H](C(C)C)N(C)C(=O)OCc1ccc(NC(=O)CNC(=O)[C@H](Cc2ccccc2)NC(=O)CNC(=O)CNC(=O)CN2CCOCCN(C(=O)CCOCCOCCOCCOCCN3C(=O)C=CC3=O)CCOCC2)cc1)C(C)C [Example 85] (MaleimidoPEG4propanoyl-[X1]GGFG[PABC][NMeV]V[Dil][X2]-X3) , if possible.
Ans. met

Just for reference, patent US20240293570A1 is where these values come from.
